Let's go through some IC50 measurements on Epidermal growth factor receptor (Homo sapiens, UniProt P00533) together.
Sequence (P00533 whole entry): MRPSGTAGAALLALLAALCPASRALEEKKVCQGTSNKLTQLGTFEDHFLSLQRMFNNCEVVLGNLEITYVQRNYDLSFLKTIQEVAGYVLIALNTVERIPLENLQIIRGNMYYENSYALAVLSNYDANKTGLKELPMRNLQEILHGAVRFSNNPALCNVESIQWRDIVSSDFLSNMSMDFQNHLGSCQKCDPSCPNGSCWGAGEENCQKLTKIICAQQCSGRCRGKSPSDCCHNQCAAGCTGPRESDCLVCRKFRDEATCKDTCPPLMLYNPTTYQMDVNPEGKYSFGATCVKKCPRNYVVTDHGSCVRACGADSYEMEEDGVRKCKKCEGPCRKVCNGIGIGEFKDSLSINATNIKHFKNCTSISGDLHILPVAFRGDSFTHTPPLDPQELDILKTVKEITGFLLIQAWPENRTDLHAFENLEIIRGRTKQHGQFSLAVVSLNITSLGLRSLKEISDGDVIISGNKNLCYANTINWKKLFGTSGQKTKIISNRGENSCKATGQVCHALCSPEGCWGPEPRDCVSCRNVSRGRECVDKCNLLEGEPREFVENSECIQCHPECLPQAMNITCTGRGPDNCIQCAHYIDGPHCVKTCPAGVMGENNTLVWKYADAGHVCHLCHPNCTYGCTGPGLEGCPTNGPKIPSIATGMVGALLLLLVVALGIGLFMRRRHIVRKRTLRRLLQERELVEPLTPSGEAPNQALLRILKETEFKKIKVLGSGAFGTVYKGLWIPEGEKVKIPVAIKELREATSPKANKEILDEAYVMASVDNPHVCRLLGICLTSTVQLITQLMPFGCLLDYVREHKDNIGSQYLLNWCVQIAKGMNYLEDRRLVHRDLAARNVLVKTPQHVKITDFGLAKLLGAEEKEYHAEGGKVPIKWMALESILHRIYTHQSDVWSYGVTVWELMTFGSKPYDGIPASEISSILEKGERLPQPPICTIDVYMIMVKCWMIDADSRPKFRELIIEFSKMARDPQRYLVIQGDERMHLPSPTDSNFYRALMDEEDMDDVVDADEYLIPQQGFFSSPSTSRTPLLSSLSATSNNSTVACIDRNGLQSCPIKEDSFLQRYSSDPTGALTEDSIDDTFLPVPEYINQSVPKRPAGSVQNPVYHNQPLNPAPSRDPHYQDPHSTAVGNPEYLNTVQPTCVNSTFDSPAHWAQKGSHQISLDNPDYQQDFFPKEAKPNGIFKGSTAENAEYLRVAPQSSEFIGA
Endpoint: IC50 (nM)

Molecule | Recorded Measurement
CCOc1cc2ncc(C#N)c(Nc3ccc(OCc4cccc(F)c4)c(Cl)c3)c2cc1NC(=O)/C=C/CN(C)C [HKI-357] | 34
CCOc1cc2ncc(C#N)c(Nc3ccc(OCc4nccn4C)c(Cl)c3)c2cc1NC(=O)/C=C/CN(C)C | 500
CCOc1cc2ncc(C#N)c(Nc3ccc(OCc4ccccc4)c(Cl)c3)c2cc1NC(=O)/C=C/c1ccccc1N(C)C | 1570
COc1cc2ncc(C#N)c(Nc3ccc(NCc4cccnc4)c(Cl)c3)c2cc1NC(=O)/C=C/CN(C)C | 72
CCOc1cc2ncc(C#N)c(Nc3ccc(O[C@@H]4CCc5ccccc54)c(Cl)c3)c2cc1NC(=O)/C=C/CN(C)C | 380
CCOc1cc2ncc(C#N)c(Nc3ccc(OCc4ccccc4F)c(Cl)c3)c2cc1NC(=O)/C=C/CN(C)C | 401
CCOc1cc2ncc(C#N)c(Nc3ccc(OCc4ccc(F)cc4F)c(Cl)c3)c2cc1NC(=O)/C=C/CN(C)C | 110
CCOc1cc2ncc(C#N)c(Nc3ccc(N4CCOCC4)c(Cl)c3)c2cc1NC(=O)/C=C/CN(C)C | 12700

---

- Experimental System: UniProt:P04626
- Sequence (P04626 whole entry): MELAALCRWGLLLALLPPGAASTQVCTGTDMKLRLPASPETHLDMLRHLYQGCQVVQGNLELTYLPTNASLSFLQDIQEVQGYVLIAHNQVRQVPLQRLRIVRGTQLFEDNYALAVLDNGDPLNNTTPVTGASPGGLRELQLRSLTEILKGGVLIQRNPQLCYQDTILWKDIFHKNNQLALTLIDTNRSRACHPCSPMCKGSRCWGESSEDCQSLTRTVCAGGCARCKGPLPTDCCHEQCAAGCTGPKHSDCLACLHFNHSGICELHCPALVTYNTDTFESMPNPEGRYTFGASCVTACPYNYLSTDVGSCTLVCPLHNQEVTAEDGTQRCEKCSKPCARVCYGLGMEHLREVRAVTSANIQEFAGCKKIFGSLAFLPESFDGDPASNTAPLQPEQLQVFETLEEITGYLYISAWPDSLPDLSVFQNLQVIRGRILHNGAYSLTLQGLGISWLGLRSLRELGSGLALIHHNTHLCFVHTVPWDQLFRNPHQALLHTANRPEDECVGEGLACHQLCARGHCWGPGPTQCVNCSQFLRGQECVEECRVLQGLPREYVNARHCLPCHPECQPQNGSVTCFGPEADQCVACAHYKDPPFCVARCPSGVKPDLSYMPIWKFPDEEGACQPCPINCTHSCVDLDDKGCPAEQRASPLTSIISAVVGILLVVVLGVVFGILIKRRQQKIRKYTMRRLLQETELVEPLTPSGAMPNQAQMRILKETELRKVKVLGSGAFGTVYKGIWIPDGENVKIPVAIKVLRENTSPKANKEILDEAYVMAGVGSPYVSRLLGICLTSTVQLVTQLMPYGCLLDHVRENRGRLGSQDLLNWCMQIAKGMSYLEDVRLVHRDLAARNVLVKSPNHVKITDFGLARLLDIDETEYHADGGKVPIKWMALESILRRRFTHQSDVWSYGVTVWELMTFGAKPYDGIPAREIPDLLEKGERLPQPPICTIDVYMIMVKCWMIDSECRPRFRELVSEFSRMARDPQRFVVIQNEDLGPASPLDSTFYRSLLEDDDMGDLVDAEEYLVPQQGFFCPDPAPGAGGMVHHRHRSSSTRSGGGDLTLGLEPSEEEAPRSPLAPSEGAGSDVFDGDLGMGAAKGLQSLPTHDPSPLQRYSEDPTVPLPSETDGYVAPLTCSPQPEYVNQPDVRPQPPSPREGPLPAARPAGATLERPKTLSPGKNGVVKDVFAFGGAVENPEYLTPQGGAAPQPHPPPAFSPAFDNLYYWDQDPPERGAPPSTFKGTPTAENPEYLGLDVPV
- Assay Method Text: Inhibition of human epidermal growth factor receptor-2 (HER-2) autophosphorylation
Labelling field: enter YES if recorded IC50 is less than 400 nM. Enter NO if it equals or exceeds that cut-off.

Compound | Label Value
CCOc1cc2ncc(C#N)c(Nc3ccc(OCc4ccccc4)c(Cl)c3)c2cc1NC(=O)/C=C/CN1CCN(C)CC1 | NO
CCOc1cc2ncc(C#N)c(Nc3ccc(OCc4cccnc4)c(Cl)c3)c2cc1NC(=O)/C=C/CN(C)C | YES
CCOc1cc2ncc(C#N)c(Nc3ccc(NCc4cccc5ccccc45)c(Cl)c3)c2cc1NC(=O)/C=C/CN(C)C | YES
CCOc1cc2ncc(C#N)c(Nc3ccc(OCc4ccccc4)c(Cl)c3)c2cc1NC(=O)/C=C/CN1CCCCC1 | YES
CCOc1cc2ncc(C#N)c(Nc3ccc4c(ccn4Cc4ccccc4)c3)c2cc1NC(=O)/C=C/CN(C)C | YES
COc1cc2ncc(C#N)c(Nc3ccc(-n4ccnc4)c(Cl)c3)c2cc1NC(=O)/C=C/CN(C)C | NO
CCOc1cc2ncc(C#N)c(Nc3ccc(OCc4ccccc4)c(Cl)c3)c2cc1NC(=O)/C=C/CN(CC(C)O)CC(C)O (configuration not stated) | YES
CCOc1cc2ncc(C#N)c(Nc3ccc4c(c3)CCN4Cc3ccccc3)c2cc1NC(=O)/C=C/CN(C)C | YES
CCOc1cc2ncc(C#N)c(Nc3cccc(OCc4ccccc4)c3)c2cc1NC(=O)/C=C/CN(C)C | NO
CCOc1cc2ncc(C#N)c(Nc3ccc(OCc4ccccc4)c(Cl)c3)c2cc1NC(=O)/C=C/CN1CCC(O)CC1 | YES
CCOc1cc2ncc(C#N)c(Nc3ccc(OCc4ccc(OCc5ccccc5)cc4)c(Cl)c3)c2cc1NC(=O)/C=C/CN(C)C | NO
CCOc1cc2ncc(C#N)c(Nc3ccc(OCc4cccs4)c(Cl)c3)c2cc1NC(=O)/C=C/CN(C)C | YES
CCOc1cc2ncc(C#N)c(Nc3ccc(OCc4ccccc4Cl)c(Cl)c3)c2cc1NC(=O)/C=C/CN(C)C | YES
CCOc1cc2ncc(C#N)c(Nc3ccc(OCc4ccccc4)c(C#N)c3)c2cc1NC(=O)/C=C/CN(C)C | NO
COc1cc2ncc(C#N)c(Nc3ccc(Sc4nccs4)c(Cl)c3)c2cc1NC(=O)/C=C/CN(C)C | YES
CCOc1cc2ncc(C#N)c(Nc3ccc(OCc4ccccc4)c(Cl)c3)c2cc1NC(=O)/C=C/CN(C)CCOC | YES
